- Test system: LNCaP tumor xenograft-bearing CB17-SCID mice
- assay name: Biodistribution in LNCaP tumor xenograft-bearing CB17-SCID mice
- experimental setup: 24 h p.i.
readout: Biodistribution Liver (% ID/g)
Give the number; % ID/g is assumed, so skip it.

Query: Can you look up the measured Biodistribution Liver of CCCCCC[C@H](NC(=O)[C@H](CCC(=O)O)NC(=O)N[C@@H](CCC(=O)N[C@H](CCCNC(=O)CCC(=O)NCCCC[C@@H](NC(=O)[C@@H](CNC(=O)c1ccc([Si](F)(C(C)(C)C)C(C)(C)C)cc1)NC(=O)CN1CCN(CC(=O)[O-])CCN(CC(=O)[O-])CCN(CC(=O)[O-])CC1)C(=O)O)C(=O)O)C(=O)O)C(=O)O.[177Lu+3] [[^177Lu]Lu-7, [^177Lu]Lu-Proinhibitor III] for me?
Response: 0.17

Query: Sample CC(C)(C)[Si](F)(c1ccc(C(=O)NCC(NC(=O)CN2CCN(CC(=O)[O-])CCN(CC(=O)[O-])CCN(CC(=O)[O-])CC2)C(=O)NC(CCCCNC(=O)CCC(=O)NCCCC(NC(=O)CCC(NC(=O)NC(CCc2nnn[nH]2)C(=O)O)C(=O)O)C(=O)O)C(=O)O)cc1)C(C)(C)C.[177Lu+3] (stereo not shown) [[^177Lu]Lu-11, [^177Lu]Lu-Tetrazole Derivative 11] — what was its Biodistribution Liver?
Response: 0.18

Query: Entry under review: CC(C)(C)[Si](F)(c1ccc(C(=O)NC[C@@H](NC(=O)CN2CCN(CC(=O)[O-])CCN(CC(=O)[O-])CCN(CC(=O)[O-])CC2)C(=O)N[C@H](CCCCNC(=O)CCC(=O)NCCC[C@@H](NC(=O)CC[C@H](NC(=O)O[C@@H](CCC(=O)O)C(=O)O)C(=O)O)C(=O)O)C(=O)O)cc1)C(C)(C)C.[177Lu+3] [[^177Lu]Lu-3, [^177Lu]Lu-Carbamate I] . Reported Biodistribution Liver?
Response: 0.13

Query: Record request: Biodistribution Liver value, item CSCC[C@H](NC(=O)CC[C@H](NC(=O)N[C@@H](CCC(=O)N[C@H](CCCNC(=O)CCC(=O)NCCCC[C@@H](NC(=O)[C@@H](CNC(=O)c1ccc([Si](F)(C(C)(C)C)C(C)(C)C)cc1)NC(=O)CN1CCN(CC(=O)[O-])CCN(CC(=O)[O-])CCN(CC(=O)[O-])CC1)C(=O)O)C(=O)O)C(=O)O)C(=O)O)C(=O)O.[177Lu+3] [[^177Lu]Lu-5, [^177Lu]Lu-Proinhibitor I]
Response: 0.05

====

- Test system: LNCaP tumor xenograft-bearing CB17-SCID mice
- assay name: Biodistribution in LNCaP tumor xenograft-bearing CB17-SCID mice
- experimental setup: 24 h p.i.
For each record, write down the corresponding Biodistribution Submandibular gland.
Numbers only; they are read as % ID/g.

Query: Name the recorded Biodistribution Submandibular gland for CC(C)(C)[Si](F)(c1ccc(C(=O)NC[C@@H](NC(=O)CN2CCN(CC(=O)[O-])CCN(CC(=O)[O-])CCN(CC(=O)[O-])CC2)C(=O)N[C@H](CCCCNC(=O)CCC(=O)NCCC[C@@H](NC(=O)CC[C@H](NC(=O)O[C@@H](CCC(=O)O)C(=O)O)C(=O)O)C(=O)O)C(=O)O)cc1)C(C)(C)C.[177Lu+3] [[^177Lu]Lu-3, [^177Lu]Lu-Carbamate I] .
Response: 0.03

Query: Any idea what Biodistribution Submandibular gland was measured for CSCC[C@H](NC(=O)CC[C@H](NC(=O)N[C@@H](CCC(=O)N[C@H](CCCNC(=O)CCC(=O)NCCCC[C@@H](NC(=O)[C@@H](CNC(=O)c1ccc([Si](F)(C(C)(C)C)C(C)(C)C)cc1)NC(=O)CN1CCN(CC(=O)[O-])CCN(CC(=O)[O-])CCN(CC(=O)[O-])CC1)C(=O)O)C(=O)O)C(=O)O)C(=O)O)C(=O)O.[177Lu+3] [[^177Lu]Lu-5, [^177Lu]Lu-Proinhibitor I] ?
Response: 0.02

These measurements were taken from patent US20250375544A1.
